All values here come from patent US11395857B2.

Give measured Biodistribution, B16F10 tumour for each item. Keep answers brief.
# System: B16F10 mouse melanoma
# test-protocol: Biodistribution of 177Lu-labeled αMSH analogues in mice bearing B16F10 mouse melanoma
# Assay type: in vivo, C57BL/6J mice
# stated-conditions: 120 h p.i., C57BL/6J mice, B16F10 melanoma
Give bare numbers, in % ID/g.

Previously resolved entries follow.
compound	Biodistribution, B16F10 tumour, % ID/g
CCCC[C@H](NC(=O)CN1CCC(NC(=O)[C@H](CCCCNC(=O)CN2CCN(CC(=O)O)CCN(CC(=O)O)CCN(CC(=O)O)CC2)NC(=O)[C@H](CCC(=O)O)NC(=O)CCCc2ccc(I)cc2)CC1)C(=O)N[C@H]1CC(=O)NCCCC[C@@H](C(N)=O)N(C)C(=O)[C@H](Cc2c[nH]c3ccccc23)N(C)C(=O)[C@H](CCCNC(=N)N)N(C)C(=O)[C@@H](Cc2ccccc2)NC(=O)[C@H](Cc2c[nH]cn2)N(C)C1=O [^177Lu-labeled CCZ01088, metal not drawn]	0.88
CCCC[C@H](NC(=O)CN1CCC(NC(=O)[C@H](CCCCNC(=O)CN2CCN(CC(=O)O)CCN(CC(=O)O)CCN(CC(=O)O)CC2)NC(=O)[C@H](CCC(=O)O)NC(=O)CCCc2ccc(I)cc2)CC1)C(=O)N[C@H]1CC(=O)NCCCC[C@@H](C(N)=O)NC(=O)[C@H](Cc2c[nH]c3ccccc23)NC(=O)[C@H](CCCNC(=N)N)NC(=O)[C@@H](Cc2ccccc2)NC(=O)[C@H](Cc2c[nH]cn2)NC1=O [^177Lu-labeled CCZ01082, metal not drawn]	0.79
CCCC[C@H](NC(=O)CN1CCC(NC(=O)CN2CCN(CC(=O)O)CCN(CC(=O)O)CCN(CC(=O)O)CC2)CC1)C(=O)N[C@H]1CC(=O)NCCCC[C@@H](C(N)=O)N(C)C(=O)[C@H](Cc2c[nH]c3ccccc23)NC(=O)[C@H](CCCNC(=N)N)N(C)C(=O)[C@@H](Cc2ccccc2)NC(=O)[C@H](Cc2c[nH]cn2)NC1=O [^177Lu-labeled CCZ01106, metal not drawn]	0.49
CCCC[C@H](NC(=O)CN1CCC(NC(=O)[C@H](CCCCNC(=O)CN2CCN(CC(=O)O)CCN(CC(=O)O)CCN(CC(=O)O)CC2)NC(=O)[C@H](CCC(=O)O)NC(=O)CCCc2ccc(I)cc2)CC1)C(=O)N[C@H]1CC(=O)NCCCC[C@@H](C(N)=O)N(C)C(=O)[C@H](Cc2c[nH]c3ccccc23)NC(=O)[C@H](CCCNC(=N)N)N(C)C(=O)[C@@H](Cc2ccccc2)NC(=O)[C@H](Cc2c[nH]cn2)NC1=O [^177Lu-labeled CCZ01118, metal not drawn]	2.63
CCCC[C@H](NC(=O)CN1CCC(NC(=O)CN2CCN(CC(=O)O)CCN(CC(=O)O)CCN(CC(=O)O)CC2)CC1)C(=O)N[C@H]1CC(=O)NCCCC[C@@H](C(N)=O)NC(=O)[C@H](Cc2c[nH]c3ccccc23)NC(=O)[C@H](CCCNC(=N)N)NC(=O)[C@@H](Cc2ccccc2)NC(=O)[C@H](Cc2c[nH]cn2)NC1=O [^177Lu-labeled CCZ01048, metal not drawn, reference compound]	0.41

Now, please, on to the next compound.
Exam item: Could you share which Biodistribution, B16F10 tumour value was measured for CCCC[C@H](NC(=O)CN1CCC(NC(=O)CN2CCN(CC(=O)O)CCN(CC(=O)O)CCN(CC(=O)O)CC2)CC1)C(=O)N[C@H]1CC(=O)NCCCC[C@@H](C(N)=O)N(C)C(=O)[C@H](Cc2c[nH]c3ccccc23)N(C)C(=O)[C@H](CCCNC(=N)N)N(C)C(=O)[C@@H](Cc2ccccc2)NC(=O)[C@H](Cc2c[nH]cn2)N(C)C1=O [^177Lu-labeled CCZ01099, metal not drawn] ?
Marked response: 0.49
